PARAMETER_MEASURED: melting point

{"columns": ["SMILES", "OBSERVED"],
 "data": [
  ["COCc1ccc(C)cc1N1C(=O)CS/C1=N\\C(=O)Nc1ccc(CNc2ncn(-c3ccc(OC(F)(F)F)cc3)n2)cc1F", "205 to 207 °C"],
  ["Cc1ccc(C(C)C)c(N2C(=O)CS/C2=N\\C(=O)Nc2ccc(CNc3ncn(-c4ccc(OC(F)(F)F)cc4)n3)cc2F)c1", "236 to 238 °C"],
  ["CCCc1ccc(C)cc1N1C(=O)CS/C1=N\\C(=O)Nc1ccc(CN(C)c2ncn(-c3ccc(OC(F)(F)F)cc3)n2)cc1F", "174 to 176 °C"],
  ["CCCc1ccc(C)cc1N1C(=O)CS/C1=N\\C(=O)Nc1ccc(CN(C)c2ncn(-c3ccc(OC(F)(F)F)cc3)n2)cn1", "184 °C (dec.)"]
]}
